This collection of values is drawn from patent US12258327B2.

For each of the compounds below, state its IC50.
Molecular target: EGFR L858R/C797S (Homo sapiens, UniProt P00533, C797S/L858R)
Sequence (P00533 25-1210 C797S/L858R): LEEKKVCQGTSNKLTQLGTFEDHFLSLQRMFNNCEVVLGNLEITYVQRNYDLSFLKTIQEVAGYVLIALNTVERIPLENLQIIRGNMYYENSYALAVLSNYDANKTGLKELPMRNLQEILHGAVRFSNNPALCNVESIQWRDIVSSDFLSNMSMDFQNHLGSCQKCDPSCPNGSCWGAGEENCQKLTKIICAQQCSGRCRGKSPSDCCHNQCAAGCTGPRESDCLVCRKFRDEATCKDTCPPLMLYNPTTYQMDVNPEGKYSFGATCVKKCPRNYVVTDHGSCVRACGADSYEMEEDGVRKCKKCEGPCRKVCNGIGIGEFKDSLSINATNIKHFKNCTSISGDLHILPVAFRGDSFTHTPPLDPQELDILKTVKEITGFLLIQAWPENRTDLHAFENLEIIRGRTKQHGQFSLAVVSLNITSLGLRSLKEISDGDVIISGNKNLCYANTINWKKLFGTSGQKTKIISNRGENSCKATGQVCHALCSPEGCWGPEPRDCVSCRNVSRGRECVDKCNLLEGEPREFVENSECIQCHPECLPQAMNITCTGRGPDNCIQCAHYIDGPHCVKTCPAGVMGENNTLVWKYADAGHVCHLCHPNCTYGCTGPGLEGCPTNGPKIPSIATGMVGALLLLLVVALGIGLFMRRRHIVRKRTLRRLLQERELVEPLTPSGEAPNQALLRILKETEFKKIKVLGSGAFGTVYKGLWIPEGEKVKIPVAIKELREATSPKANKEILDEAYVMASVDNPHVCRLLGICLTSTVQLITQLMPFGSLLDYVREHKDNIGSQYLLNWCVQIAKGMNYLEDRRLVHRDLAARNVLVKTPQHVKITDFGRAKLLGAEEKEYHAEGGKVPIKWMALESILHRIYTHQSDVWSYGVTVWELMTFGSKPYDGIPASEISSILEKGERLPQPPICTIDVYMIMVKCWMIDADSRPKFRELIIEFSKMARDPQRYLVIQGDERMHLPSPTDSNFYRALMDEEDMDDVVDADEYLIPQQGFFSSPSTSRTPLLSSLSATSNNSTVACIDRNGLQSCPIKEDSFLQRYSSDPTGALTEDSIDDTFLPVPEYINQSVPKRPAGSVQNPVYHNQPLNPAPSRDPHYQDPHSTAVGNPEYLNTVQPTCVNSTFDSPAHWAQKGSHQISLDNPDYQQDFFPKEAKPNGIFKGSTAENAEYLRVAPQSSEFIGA
Assay: Biochemical EGFR kinase assay (Lance Ultra TR-FRET), double mutant L858R/C797S
Settings: IC50 L858R/C797S (nM) 100 μM ATP, 100 μM ATP
Description: Biochemical EGFR kinase assays were conducted using Lance Ultra time-resolved fluorescence resonance energy transfer (TR-FRET) technology from Perkin-Elmer. […] Each kinase reactions were incubated at room temperature for 1 hour and then stopped by the addition of 4 μL of stop solution (10 mM EDTA). […] After 60 minutes incubation at room temperature the LANCE signal was measured on an EnVision Multilabel Reader (Perkin-Elmer). […]
One number for each entry, in nM.

Example compounds with recorded IC50:
[
  {
    "substanceSmiles": "O=S(=O)(C1CC1)n1cc(-c2nccc(Nc3cc(NC[C@H]4C[C@H](O)C4)c(-c4ccn(C(F)F)n4)cn3)n2)cn1",
    "assayedTarget": "EGFR L858R/C797S (Homo sapiens, UniProt P00533, C797S/L858R)",
    "scaleUnit": "nM",
    "IC50": 53.3
  },
  {
    "substanceSmiles": "O=S(=O)(C1CC1)n1cc(-c2nccc(Nc3cc(N[C@H]4CC[C@@H](NCCF)CC4)c(-c4ccn(CC(F)F)n4)cn3)n2)cn1",
    "assayedTarget": "EGFR L858R/C797S (Homo sapiens, UniProt P00533, C797S/L858R)",
    "scaleUnit": "nM",
    "IC50": 20.9
  }
]

Could you now look at the following compound, please?
What value of IC50 has been recorded for this entry: Cn1nc(-c2cnc(Nc3ccnc(-c4cnn(S(=O)(=O)C5CC5)c4)n3)cc2N[C@H]2CC[C@H](CCO)CC2)cc1C(F)(F)F
32.5

====

Biological target: EGFR L858R/T790M/C797S (Homo sapiens, UniProt P00533, C797S/L858R/T790M)
Sequence (P00533 25-1210 T790M/C797S/L858R): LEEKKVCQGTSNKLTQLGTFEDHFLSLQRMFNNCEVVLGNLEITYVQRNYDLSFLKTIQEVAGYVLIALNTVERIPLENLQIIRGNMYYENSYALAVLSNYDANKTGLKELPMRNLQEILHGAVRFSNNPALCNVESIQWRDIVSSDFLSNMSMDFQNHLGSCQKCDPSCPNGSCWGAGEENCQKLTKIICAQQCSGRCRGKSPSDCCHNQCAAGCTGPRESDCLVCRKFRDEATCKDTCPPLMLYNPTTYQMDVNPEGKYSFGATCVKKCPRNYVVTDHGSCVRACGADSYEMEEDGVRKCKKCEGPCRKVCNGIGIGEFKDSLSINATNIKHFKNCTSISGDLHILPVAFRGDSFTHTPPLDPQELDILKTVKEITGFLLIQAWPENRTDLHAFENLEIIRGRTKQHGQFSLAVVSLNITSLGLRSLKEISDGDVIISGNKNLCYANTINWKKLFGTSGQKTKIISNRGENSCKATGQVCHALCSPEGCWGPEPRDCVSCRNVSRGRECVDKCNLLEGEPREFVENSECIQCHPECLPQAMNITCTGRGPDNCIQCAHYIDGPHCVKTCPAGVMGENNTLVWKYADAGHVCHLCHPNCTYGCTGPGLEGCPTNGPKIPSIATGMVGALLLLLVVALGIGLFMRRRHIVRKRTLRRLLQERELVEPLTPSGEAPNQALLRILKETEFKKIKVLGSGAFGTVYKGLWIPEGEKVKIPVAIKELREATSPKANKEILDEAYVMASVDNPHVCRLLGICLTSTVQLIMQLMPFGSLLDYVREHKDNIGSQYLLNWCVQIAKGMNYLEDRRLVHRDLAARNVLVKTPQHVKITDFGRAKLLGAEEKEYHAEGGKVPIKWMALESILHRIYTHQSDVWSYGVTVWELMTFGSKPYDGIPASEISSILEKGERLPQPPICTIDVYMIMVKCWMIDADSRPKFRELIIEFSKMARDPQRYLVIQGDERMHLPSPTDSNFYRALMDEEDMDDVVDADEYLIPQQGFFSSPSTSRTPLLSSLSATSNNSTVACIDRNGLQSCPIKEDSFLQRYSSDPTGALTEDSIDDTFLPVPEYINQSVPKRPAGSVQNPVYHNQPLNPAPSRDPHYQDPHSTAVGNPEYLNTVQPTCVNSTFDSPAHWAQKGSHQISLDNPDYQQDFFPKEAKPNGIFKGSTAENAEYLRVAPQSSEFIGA
Assay: Biochemical EGFR kinase assay (Lance Ultra TR-FRET), triple mutant L858R/T790M/C797S
Conditions: read-out: IC50 L858R/T790M/C797S (nM) 100 μM ATP; 100 μM ATP
Please respond with reported IC50 for every item in the list.
Be sure to follow the number with its unit.

The examples below pair each entry with its known result.
[
  {
    "substanceSmiles": "CN[C@H]1CC[C@@H](Nc2cc(Nc3ccnc(-c4cnn(S(=O)(=O)C5CC5)c4)n3)ncc2-c2ccn(C)n2)CC1",
    "measuredValue": "0.3 nM"
  },
  {
    "substanceSmiles": "CN(C)[C@H]1CC[C@H](CNc2cc(Nc3ccnc(-c4cnn(S(=O)(=O)C5CC5)c4)n3)ncc2-c2ccn(C(F)F)n2)CC1",
    "measuredValue": "0.1 nM"
  },
  {
    "substanceSmiles": "CN[C@H]1CC[C@@H](Nc2cc(Nc3ccnc(-c4cnn(S(=O)(=O)C5CC5)c4)n3)ncc2-c2ccn(C(C)C)n2)CC1",
    "measuredValue": "0.3 nM"
  },
  {
    "substanceSmiles": "O=S(=O)(C1CC1)n1cc(-c2nccc(Nc3cc(NC[C@H]4CC[C@H](NCC(F)F)CC4)c(-c4ccn(C(F)F)n4)cn3)n2)cn1",
    "measuredValue": "2 nM"
  },
  {
    "substanceSmiles": "Cn1ccc(-c2cnc(Nc3ccnc(-c4cnn(S(=O)(=O)C5CC5)c4)n3)cc2N[C@H]2CC[C@](O)(C(F)(F)F)CC2)n1",
    "measuredValue": "4 nM"
  }
]

Next, consider the following molecule.
Return reported IC50; argument: CC(C)(O)[C@H]1CC[C@@H](Nc2cc(Nc3ccnc(-c4cnn(S(=O)(=O)C5CC5)c4)n3)ncc2-c2csc(C(F)(F)F)n2)CC1
28.7 nM
